B1: tRNA (parent)
chain: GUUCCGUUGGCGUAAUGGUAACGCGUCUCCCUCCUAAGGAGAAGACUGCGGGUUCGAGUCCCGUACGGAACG

variants of: B1; assay: yeast fitness relative to wild type (ratio to wild type); higher = fitter; tRNA-Arg(CCU), competitive growth, 37 C, YPD
This sample holds only a part of the variants without activity.
Decision: yeast fitness compared against 0.6; not below it gives true (1), below it gives false (0).

Worked cases, answers included:
sequence-change	class
A15U C49G G68C	false (0)
A43U U47G U53G A69U	false (0)
G23C G38A C61U	false (0)
G9C C61U C66G	false (0)
U7C U19C U26C C34U G52A U59A G63C	false (0)
C24U C34U U35G	false (0)
G6C U8C C34G A45G A65U	false (0)
U2A U28A C55G	false (0)
G10A C29U C31U G48C U54A	false (0)
C27G U32G A36C C46G	false (0)

Qu. Please check the record G10A A36U G38A A65C and state if its yeast fitness is at or above 0.6.
Ans. false (0)

Qu. Please check the record G6C C24U C27G and state if its yeast fitness is at or above 0.6.
Ans. false (0)

Qu. Please check the record C4G C11U U19A U32A A37U and state if its yeast fitness is at or above 0.6.
Ans. false (0)

Qu. Please check the record C24U G25C C46A and state if its yeast fitness is at or above 0.6.
Ans. true (1)

Qu. Please check the record C11U G50A A70U and state if its yeast fitness is at or above 0.6.
Ans. true (1)

Qu. Please check the record C11U C22U G44C and state if its yeast fitness is at or above 0.6.
Ans. false (0)

Qu. Please check the record U7A C49U and state if its yeast fitness is at or above 0.6.
Ans. true (1)

Qu. Please check the record C11U A20U U32A G39A A65C and state if its yeast fitness is at or above 0.6.
Ans. false (0)

Qu. Please check the record C24G A45C and state if its yeast fitness is at or above 0.6.
Ans. true (1)

Qu. Please check the record C34U A37G and state if its yeast fitness is at or above 0.6.
Ans. false (0)
